Target: Progesterone receptor (Homo sapiens, UniProt P06401)
Sequence (P06401 whole entry): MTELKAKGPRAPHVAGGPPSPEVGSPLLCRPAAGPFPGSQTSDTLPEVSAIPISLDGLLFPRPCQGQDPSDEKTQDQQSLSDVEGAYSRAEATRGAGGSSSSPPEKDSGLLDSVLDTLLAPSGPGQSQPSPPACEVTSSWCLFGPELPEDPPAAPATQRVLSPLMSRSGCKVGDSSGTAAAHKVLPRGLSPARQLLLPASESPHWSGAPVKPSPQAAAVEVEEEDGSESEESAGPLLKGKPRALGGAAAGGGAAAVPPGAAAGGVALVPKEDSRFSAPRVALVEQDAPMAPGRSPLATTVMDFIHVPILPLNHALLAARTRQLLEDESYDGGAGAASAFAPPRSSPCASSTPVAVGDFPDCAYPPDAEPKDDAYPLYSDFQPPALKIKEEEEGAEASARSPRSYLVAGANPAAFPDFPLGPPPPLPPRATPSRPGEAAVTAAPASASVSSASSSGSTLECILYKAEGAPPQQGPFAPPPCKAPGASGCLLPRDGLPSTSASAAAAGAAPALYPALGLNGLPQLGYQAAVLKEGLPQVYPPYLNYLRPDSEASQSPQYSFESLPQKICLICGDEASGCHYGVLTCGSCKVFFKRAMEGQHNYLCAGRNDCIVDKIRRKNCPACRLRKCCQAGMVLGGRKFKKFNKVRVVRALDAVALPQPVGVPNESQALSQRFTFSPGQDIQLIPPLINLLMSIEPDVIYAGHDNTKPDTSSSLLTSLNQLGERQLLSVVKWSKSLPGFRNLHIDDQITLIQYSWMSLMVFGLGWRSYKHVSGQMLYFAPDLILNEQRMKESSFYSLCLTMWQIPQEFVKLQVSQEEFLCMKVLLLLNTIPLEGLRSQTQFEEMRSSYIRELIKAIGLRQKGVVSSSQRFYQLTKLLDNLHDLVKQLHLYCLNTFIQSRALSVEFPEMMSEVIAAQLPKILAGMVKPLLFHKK
readout: IC50 (µM)
Respond numerically; units are µM and should not be typed.

Recorded IC50 for `O=c1cc(-c2ccccc2)oc2cc(O)c(O)c(O)c12` on Progesterone receptor (Homo sapiens, UniProt P06401) was 15

* * *

Assay: Toxicity in P4 induced CD-1 mouse assessed as effect on MG weight at 10 mg/kg, ip for 7 days (Rvb= 0.22g)
Format: organism-based
Conditions: in vivo, 168 h, time 7 day
readout: Activity (g)
Respond numerically; units are g and should not be typed.

CC#C[C@]1(O)CC[C@H]2[C@@H]3CCC4=CC(=O)CCC4=C3[C@@H](c3ccc(N(C)C)cc3)C[C@@]21C [MIFEPRISTONE] has a reported Activity of 0.17
